- ASSAYED_SYSTEM: CB2 receptor (Homo sapiens, UniProt P34972)
- Construct: expressed in transfected cells
- Sequence (P34972 whole entry): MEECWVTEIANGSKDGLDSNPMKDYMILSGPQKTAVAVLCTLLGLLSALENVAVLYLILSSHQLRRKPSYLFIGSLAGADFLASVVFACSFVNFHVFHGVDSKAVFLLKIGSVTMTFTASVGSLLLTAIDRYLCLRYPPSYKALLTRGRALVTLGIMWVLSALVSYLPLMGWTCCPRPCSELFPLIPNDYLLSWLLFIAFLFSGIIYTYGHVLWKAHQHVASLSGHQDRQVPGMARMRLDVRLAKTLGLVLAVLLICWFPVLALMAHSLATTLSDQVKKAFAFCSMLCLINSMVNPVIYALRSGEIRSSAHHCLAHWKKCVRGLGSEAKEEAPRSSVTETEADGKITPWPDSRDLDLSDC
- ASSAY_PROTOCOL: Calcium mobilization assay, antagonist mode (CP55940 challenge), CHO expressing CB2
- Format: cell-based
- COND: CB2 antagonist(μM) replicate3, single independent experiment, replicate 3
Quick reference for IC50 among some compounds
Could you give me the number in µM? Just the number is fine.

INSERT INTO assay_data (compound, assayed_system, endpoint, reading_unit, readout_value) VALUES
  ('CCCS(=O)(=O)Oc1cc(C=C2SC(=O)N(CC(C)C)C2=O)ccc1OC', 'CB2 receptor (Homo sapiens, UniProt P34972)', 'IC50', 'µM', 0.728);

Record summary for COc1ccc(C(=O)c2c(C)n(CCN3CCOCC3)c3cc(I)ccc23)cc1 [AM630, reference compound] : reported IC50 = 0.55

###

Attribute: IC50
- ASSAYED_SYSTEM: CB2 receptor (Homo sapiens, UniProt P34972)
- Construct: expressed in transfected cells
- ASSAY_PROTOCOL: Calcium mobilization assay, antagonist mode (CP55940 challenge), CHO expressing CB2
- Assay type: cell-based
- COND: single independent experiment, replicate 3; read-out: CB2 antagonist(μM) replicate3
Give the value, in units of µM, as a plain number.

INSERT INTO results (smiles_entry, assayed_system, endpoint, readout_value) VALUES
  ('COc1ccc(C=C2SC(=O)N(C(C)C)C2=O)cc1OC(=O)CCCCl', 'CB2 receptor (Homo sapiens, UniProt P34972)', 'IC50', 0.224);

# ---- query compound ----
Lab note: CCCS(=O)(=O)Oc1cc(C=C2SC(=O)N(C(C)C)C2=O)ccc1OC gave IC50 of 0.44

###

Quick reference for EC50 among some molecules
- ASSAYED_SYSTEM: CB1 receptor (Homo sapiens, UniProt P21554)
- Sequence (P21554 whole entry): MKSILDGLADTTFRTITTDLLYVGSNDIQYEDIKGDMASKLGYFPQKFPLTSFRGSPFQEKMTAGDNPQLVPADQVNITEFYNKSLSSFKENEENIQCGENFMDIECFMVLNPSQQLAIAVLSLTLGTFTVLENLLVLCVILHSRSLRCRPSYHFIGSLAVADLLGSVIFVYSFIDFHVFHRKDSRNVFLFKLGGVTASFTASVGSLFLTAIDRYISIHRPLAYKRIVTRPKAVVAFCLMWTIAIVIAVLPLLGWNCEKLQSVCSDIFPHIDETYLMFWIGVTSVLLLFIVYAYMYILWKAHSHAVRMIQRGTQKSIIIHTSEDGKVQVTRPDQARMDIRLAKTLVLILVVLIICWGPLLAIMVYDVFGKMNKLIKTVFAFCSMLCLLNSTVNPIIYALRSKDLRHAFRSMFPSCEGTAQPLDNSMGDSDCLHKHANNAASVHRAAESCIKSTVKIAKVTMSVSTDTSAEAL
- ASSAY_PROTOCOL: Calcium mobilization assay, agonist mode, CHO expressing CB1 and Gα16
- Format: cell-based
- COND: agonist activity, CHO expressing CB1, mean ± SEM; read-out: CB1 EC50

Sample answers from the record:
INSERT INTO measurements (smiles_entry, assayed_system, readout_value) VALUES
  ('CC(C)CN1C(=O)SC(=Cc2cccc(OCc3ccccc3C#N)c2)C1=O', 'CB1 receptor (Homo sapiens, UniProt P21554)', '> 10 µM'),
  ('COc1cc(COc2ccccc2C=C2SC(=O)N(C(C)C)C2=O)cc(OC)c1', 'CB1 receptor (Homo sapiens, UniProt P21554)', '> 10 µM');

// assay CB1 receptor (Homo sapiens, UniProt P21554), entry CCCN1C(=O)SC(=Cc2ccccc2OCc2ccccc2C#N)C1=O , EC50 value = > 10 µM

EC50 value, target or system CB1 receptor (Homo sapiens, UniProt P21554), for CC(C)N1C(=O)S/C(=C\c2ccccc2OC(=O)c2ccccc2F)C1=O : > 10 µM

Field EC50 (system: CB1 receptor (Homo sapiens, UniProt P21554)) for entry CC(C)CN1C(=O)SC(=Cc2ccccc2OCc2ccccc2F)C1=O = > 10 µM

EC50 of O=C1SC(=Cc2ccccc2OCc2ccccc2F)C(=O)N1C1CCCC1 , assay on CB1 receptor (Homo sapiens, UniProt P21554), is > 10 µM

Result for COc1ccc(C=C2SC(=O)N(C(C)C)C2=O)cc1OC(=O)c1ccccc1F , tested on CB1 receptor (Homo sapiens, UniProt P21554), EC50: > 10 µM

###

- ASSAYED_SYSTEM: CB1 receptor (Homo sapiens)
- ASSAY_PROTOCOL: Calcium mobilization assay, agonist mode, CHO expressing CB1 and Gα16
- Type: cell-based
- COND: CB1 EC50, agonist activity, CHO expressing CB1, mean ± SEM
ENDPOINT: pEC50
// scale note: pEC50 = -log10(conc_M); give the bare number

Fill in: CB1 receptor (Homo sapiens) pEC50 for CC(C)N1C(=O)SC(=Cc2ccccc2OCCN2CCOCC2)C1=O [Compound 8] = 6.12

###

- ASSAYED_SYSTEM: CB2 receptor (Homo sapiens)
- Construct: expressed in transfected cells
- ASSAY_PROTOCOL: Calcium mobilization assay, agonist mode, CHO expressing CB2 and Gα16
- Format: cell-based
- COND: CB2 EC50, agonist activity, CHO expressing CB2, three independent assays, mean ± SEM
ENDPOINT: EC50 (nM)
Provide the reading as a plain figure in nM.

Lab note: CC(C)N1C(=O)SC(=Cc2ccccc2OCCN2CCOCC2)C1=O gave EC50 of 90

###

- ASSAYED_SYSTEM: CB2 receptor (Homo sapiens, UniProt P34972)
- Construct: expressed in transfected cells
- ASSAY_PROTOCOL: Calcium mobilization assay, agonist mode, CHO expressing CB2 and Gα16
- Format: cell-based
- COND: agonist activity, CHO expressing CB2, three independent assays, mean ± SEM; read-out: CB2 EC50
ENDPOINT: EC50

Illustrative cases are given below, each with its answer.
INSERT INTO results (molecule, readout_value) VALUES
  ('COc1ccc(C=C2SC(=O)N(CC(C)C)C2=O)cc1OC(=O)c1cccc(Br)c1 [Compound 35]', '> 10 µM'),
  ('CC(C)N1C(=O)SC(=Cc2ccccc2OCc2cccc(Br)c2)C1=O [Compound 7]', '> 10 µM');

Recorded EC50 (molecule COc1ccc(/C=C2\SC(=O)N(CC(C)C)C2=O)cc1OC(=O)C12CC3CC(CC(C3)C1)C2 [Compound 37] ): > 10 µM

###

- ASSAYED_SYSTEM: CB2 receptor (Homo sapiens, UniProt P34972)
- Construct: expressed in transfected cells
- ASSAY_PROTOCOL: Calcium mobilization assay, agonist mode, CHO expressing CB2 and Gα16
- Format: cell-based
- COND: single independent experiment, replicate 1; read-out: CB2 agonist(μM) replicate 1
Reported log10 of EC50 values for a set of compounds
Field: value | Transform: log10 | Quantity: EC50 | Unit: µM

INSERT INTO results (smiles_entry, endpoint, readout_value) VALUES
  ('CC(C)N1C(=O)SC(=Cc2ccccc2OC(=O)N2CCOCC2)C1=O', 'log10 of EC50', -0.78);

Reported log10 of EC50 for CC(C)N1C(=O)SC(=Cc2ccccc2OC(=O)C2CCCCCC2)C1=O was -0.65

Summary for this compound, CC(C)N1C(=O)SC(=Cc2ccccc2OC(=O)c2ccc(Cl)nc2)C1=O : log10 of EC50 is 0.89

// sample N#Cc1ccccc1COc1ccccc1C=C1SC(=O)N(C2CCCC2)C1=O , its log10 of EC50 was 0.22

Lab note: CC(C)N1C(=O)SC(=Cc2ccccc2OCc2ccccc2F)C1=O gave log10 of EC50 of -0.73

What the record says about CC(C)N1C(=O)SC(=Cc2ccccc2OC(=O)C(C)(C)CCl)C1=O : log10 of EC50 is 0.16

The reported log10 of EC50 of the compound CC(C)N1C(=O)S/C(=C\c2ccccc2OC(=O)c2ccccc2F)C1=O was 0.70

CC(C)N1C(=O)SC(=Cc2ccccc2OCc2ccccc2C#N)C1=O yielded log10 of EC50 of 0.24

###

- ASSAYED_SYSTEM: CB2 receptor (Homo sapiens)
- Construct: expressed in transfected cells
- ASSAY_PROTOCOL: Calcium mobilization assay, agonist mode, CHO expressing CB2 and Gα16
- Assay type: cell-based
- COND: single independent experiment, replicate 3; read-out: CB2 agonist(μM) replicate3
ENDPOINT: EC50 (µM)
Report as a plain number; the unit µM is understood.

Recorded results for 2 molecules are shown here.
INSERT INTO results (smiles_entry, endpoint, reading_unit, readout_value) VALUES
  ('CC(C)CN1C(=O)S/C(=C\c2ccccc2OC(=O)C(C)(C)CCl)C1=O', 'EC50', 'µM', 1.69),
  ('COc1ccc(C=C2SC(=O)N(C(C)C)C2=O)cc1OC(=O)c1cccc(Br)c1', 'EC50', 'µM', 0.693);

Sure, the documented EC50 for CC(C)N1C(=O)SC(=Cc2ccccc2OC(=O)N2CCOCC2)C1=O is 0.489
